The reported measurements were obtained from paper PMC3258254.

Here the recorded T1/2Ke is given for each entry.
assay: Pharmacokinetics in rat plasma after oral administration of polyphenols; conditions: rat plasma, oral 50 µmol•kg^–1, mean ± SD, n = 6
Dear colleague, please return just the value in h, with no unit written.

Consider the worked cases shown below.
INSERT INTO measurements (compound, units, reported) VALUES
  ('Cc1cc(O)c2c(c1)C(=O)c1cccc(O)c1C2=O [Chrysophanol]', 'h', 8.00),
  ('Cc1cc(O)c2c(c1)C(=O)c1cc(O)cc(O)c1C2=O [Emodin]', 'h', 2.93),
  ('O=c1cc(-c2ccc(O)cc2)oc2cc(O)cc(O)c12 [Apigenin]', 'h', 2.11);

From here, focus on the item given below.
Problem: Need T1/2Ke, item Oc1ccc(/C=C/c2cc(O)cc(O)c2)cc1 [Resveratrol]
Solution: 1.82
